The entries below are paired with their reported viability at 5 µM.
- Tested on: PC-12
- Method notes: Neuroprotection against H2O2-induced cell death in rat PC12 cells assessed as cell viability at 5 uM preincubated for 3 hrs followed by H2O2 stimulation measured after 2 hrs by MTT assay (reference value: 25.2 to 41.8%)
- Format: functional
- Cond: read-out: Activity
Measure name: viability at 5 µM (%)

| Compound | Measure name | Endpoint result |
| --- | --- | --- |
| Cc1cc(=O)oc2cc(OCCCCCn3cc(CNC(=O)CCCCC4CCSS4)nn3)ccc12 (stereo not drawn) | viability at 5 µM | 61 |
| O=C(CCCCC1CCSS1)NCc1cn(CCCOc2ccc3ccc(=O)oc3c2)nn1 (stereo not drawn) | viability at 5 µM | 39.2 |
| O=C(CCCCC1CCSS1)NCc1cn(CCCOc2ccc3cc(-c4ccc(Cl)c(Cl)c4)c(=O)oc3c2)nn1 (stereo not drawn) | viability at 5 µM | 44.7 |
| O=C(CCCCC1CCSS1)NCc1cn(CCCOc2ccc3cc(-c4ccc(Br)cc4)c(=O)oc3c2)nn1 (stereo not drawn) | viability at 5 µM | 57.3 |
| CC(=O)c1cc2ccc(OCCCn3cc(CNC(=O)CCCCC4CCSS4)nn3)cc2oc1=O (stereo not drawn) | viability at 5 µM | 37.5 |
| O=C(CCCCC1CCSS1)NCc1cn(CCCCCOc2ccc3cc(-c4ccc(Br)cc4)c(=O)oc3c2)nn1 (stereo not drawn) | viability at 5 µM | 45.7 |
| O=C(CCCCC1CCSS1)NCc1cn(CCCCCOc2ccc3cc(-c4ccccc4)c(=O)oc3c2)nn1 (stereo not drawn) | viability at 5 µM | 28 |
| O=C(CCCCC1CCSS1)NCc1cn(CCCCOc2ccc3cc(-c4ccc(Br)cc4)c(=O)oc3c2)nn1 (stereo not drawn) | viability at 5 µM | 40.5 |
| O=C(CCCCC1CCSS1)NCc1cn(CCCCOc2ccc3ccc(=O)oc3c2)nn1 (stereo not drawn) | viability at 5 µM | 52.8 |
| O=C(CCCCC1CCSS1)NCc1cn(CCCOc2ccc3cc(C(=O)O)c(=O)oc3c2)nn1 (stereo not drawn) | viability at 5 µM | 57 |
| O=C(CCCCC1CCSS1)NCc1cn(CCCCOc2ccc3cc(-c4ccc(Cl)c(Cl)c4)c(=O)oc3c2)nn1 (stereo not drawn) | viability at 5 µM | 53.2 |
| COc1ccc(-c2cc3ccc(OCCCCn4cc(CNC(=O)CCCCC5CCSS5)nn4)cc3oc2=O)cc1OC (stereo not drawn) | viability at 5 µM | 57.2 |
| O=C(CCCCC1CCSS1)NCc1cn(CCCCOc2ccc3cc(-c4ccccc4)c(=O)oc3c2)nn1 (stereo not drawn) | viability at 5 µM | 32.8 |
| CC(=O)c1cc2ccc(OCCCCCn3cc(CNC(=O)CCCCC4CCSS4)nn3)cc2oc1=O (stereo not drawn) | viability at 5 µM | 22.2 |
| O=C(CCCCC1CCSS1)NCc1cn(CCCOc2ccc3cc(-c4ccccc4)c(=O)oc3c2)nn1 (stereo not drawn) | viability at 5 µM | 29.8 |
| O=C(CCCCC1CCSS1)NCc1cn(CCCOc2ccc3cc(-c4ccc(Cl)cc4)c(=O)oc3c2)nn1 (stereo not drawn) | viability at 5 µM | 60.6 |
| O=C(CCCCC1CCSS1)NCc1cn(CCCCOc2ccc3cc(-c4ccc(Cl)cc4)c(=O)oc3c2)nn1 (stereo not drawn) | viability at 5 µM | 52 |
| CCOC(=O)c1cc2ccc(OCCCCCn3cc(CNC(=O)CCCCC4CCSS4)nn3)cc2oc1=O (stereo not drawn) | viability at 5 µM | 36.4 |

----------
- Subject of test: Acetylcholinesterase (Electrophorus electricus, UniProt O42275)
- Sequence (O42275 whole entry): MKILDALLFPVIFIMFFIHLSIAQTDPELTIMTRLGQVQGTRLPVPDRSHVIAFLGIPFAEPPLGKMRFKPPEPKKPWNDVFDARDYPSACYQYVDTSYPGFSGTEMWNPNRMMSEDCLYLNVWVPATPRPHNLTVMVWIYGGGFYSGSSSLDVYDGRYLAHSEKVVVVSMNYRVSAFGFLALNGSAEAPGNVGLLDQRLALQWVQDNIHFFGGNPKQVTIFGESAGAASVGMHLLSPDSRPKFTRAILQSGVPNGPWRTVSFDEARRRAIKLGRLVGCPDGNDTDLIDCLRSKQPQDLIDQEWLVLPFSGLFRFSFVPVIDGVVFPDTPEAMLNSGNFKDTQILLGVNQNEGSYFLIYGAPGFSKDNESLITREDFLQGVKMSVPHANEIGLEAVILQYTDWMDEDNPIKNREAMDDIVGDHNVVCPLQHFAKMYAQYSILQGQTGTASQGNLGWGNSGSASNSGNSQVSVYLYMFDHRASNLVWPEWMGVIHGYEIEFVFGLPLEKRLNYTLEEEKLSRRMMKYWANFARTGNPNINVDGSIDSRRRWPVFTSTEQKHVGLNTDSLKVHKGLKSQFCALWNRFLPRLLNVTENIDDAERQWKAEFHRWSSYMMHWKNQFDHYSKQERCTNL
pIC50: −log10 of the molar value.
The entries below are paired with their reported pIC50.

| Compound | Limit operator | pIC50 |
| --- | --- | --- |
| COc1ccc(-c2cc3ccc(OCCCn4cc(CNC(=O)CCCCC5CCSS5)nn4)cc3oc2=O)cc1 (centres undefined) | = | 4.40 |
| COc1ccc(-c2cc3ccc(OCCCCn4cc(CNC(=O)CCCCC5CCSS5)nn4)cc3oc2=O)cc1OC (centres undefined) | < | 4.00 |
| CC(=O)c1cc2ccc(OCCCCCn3cc(CNC(=O)CCCCC4CCSS4)nn3)cc2oc1=O (centres undefined) | < | 4.00 |
| O=C(CCCCC1CCSS1)NCc1cn(CCCCCOc2ccc3cc(-c4ccc(Br)cc4)c(=O)oc3c2)nn1 (centres undefined) | < | 4.00 |
| O=C(CCCCC1CCSS1)NCc1cn(CCCOc2ccc3cc(C(=O)O)c(=O)oc3c2)nn1 (centres undefined) | < | 4.00 |
| O=C(CCCCC1CCSS1)NCc1cn(CCCCCOc2ccc3ccc(=O)oc3c2)nn1 (centres undefined) | = | 4.15 |
| O=C(CCCCC1CCSS1)NCc1cn(CCCCOc2ccc3cc(-c4ccc(Cl)c(Cl)c4)c(=O)oc3c2)nn1 (centres undefined) | < | 4.00 |
| Cc1cc(=O)oc2cc(OCCCn3cc(CNC(=O)CCCCC4CCSS4)nn3)ccc12 (centres undefined) | = | 4.26 |
| O=C(CCCCC1CCSS1)NCc1cn(CCCCOc2ccc3ccc(=O)oc3c2)nn1 (centres undefined) | = | 4.18 |

----------
- Tested on: PC-12
- Method notes: Neuroprotection against H2O2-induced cell death in rat PC12 cells assessed as cell viability at 10 uM preincubated for 3 hrs followed by H2O2 stimulation measured after 2 hrs by MTT assay (reference value: 25.2 to 41.8%)
- Assay type: functional
- Cond: read-out: Activity
Measure name: viability at 10 µM

| Molecule | Measure name | Endpoint result |
| --- | --- | --- |
| COc1ccc(-c2cc3ccc(OCCCCn4cc(CNC(=O)CCCCC5CCSS5)nn4)cc3oc2=O)cc1OC (stereo not given) | viability at 10 µM | 64% |
| O=C(CCCCC1CCSS1)NCc1cn(CCCCOc2ccc3cc(-c4ccccc4)c(=O)oc3c2)nn1 (stereo not given) | viability at 10 µM | 30.5% |
| O=c1c(O)c(-c2ccc(O)c(O)c2)oc2cc(O)cc(O)c12 | viability at 10 µM | 53.7% |
| O=C(CCCCC1CCSS1)NCc1cn(CCCCCOc2ccc3cc(-c4ccccc4)c(=O)oc3c2)nn1 (stereo not given) | viability at 10 µM | 26.3% |
| CCOC(=O)c1cc2ccc(OCCCCCn3cc(CNC(=O)CCCCC4CCSS4)nn3)cc2oc1=O (stereo not given) | viability at 10 µM | 38.3% |

----------
- Tested on: PC-12
- Method notes: Neuroprotection against H2O2-induced cell death in rat PC12 cells assessed as cell viability at 10 uM preincubated for 3 hrs followed by H2O2 stimulation measured after 2 hrs by MTT assay (reference value: 25.2 to 41.8%)
- Type: functional
- Cond: read-out: Activity
The entries below are paired with their reported viability at 10 µM.

| Compound | Subject of test | viability at 10 µM (%) |
| --- | --- | --- |
| COc1ccc(-c2cc3ccc(OCCCn4cc(CNC(=O)CCCCC5CCSS5)nn4)cc3oc2=O)cc1 (stereo not given) | PC-12 | 57.6 |
| Cc1cc(=O)oc2cc(OCCCn3cc(CNC(=O)CCCCC4CCSS4)nn3)ccc12 (stereo not given) | PC-12 | 69.4 |
| O=C(CCCCC1CCSS1)NCc1cn(CCCCCOc2ccc3cc(-c4ccc(Br)cc4)c(=O)oc3c2)nn1 (stereo not given) | PC-12 | 48.4 |
| CC(=O)c1cc2ccc(OCCCCCn3cc(CNC(=O)CCCCC4CCSS4)nn3)cc2oc1=O (stereo not given) | PC-12 | 20.8 |
| CC(=O)c1cc2ccc(OCCCn3cc(CNC(=O)CCCCC4CCSS4)nn3)cc2oc1=O (stereo not given) | PC-12 | 38 |

----------
- Subject of test: Acetylcholinesterase (Electrophorus electricus)
pKi: −log10 of the molar value.

| Compound | pKi |
| --- | --- |
| COc1ccc(-c2cc3ccc(OCCCn4cc(CNC(=O)CCCCC5CCSS5)nn4)cc3oc2=O)cc1OC (stereo unspecified) | 5.16 |

----------
- Test system: PC-12
- Method notes: Neuroprotection against H2O2-induced cell death in rat PC12 cells assessed as cell viability at 10 uM preincubated for 3 hrs followed by H2O2 stimulation measured after 2 hrs by MTT assay (reference value: 25.2 to 41.8%)
- Assay type: functional
- Cond: read-out: Activity
Measure name: viability at 10 µM (%)

| Compound | Measure unit | Endpoint result |
| --- | --- | --- |
| COc1ccc(-c2cc3ccc(OCCCn4cc(CNC(=O)CCCCC5CCSS5)nn4)cc3oc2=O)cc1OC (centres undefined) | % | 43.5 |
| Cc1cc(=O)oc2cc(OCCCCCn3cc(CNC(=O)CCCCC4CCSS4)nn3)ccc12 (centres undefined) | % | 66.3 |
| O=C(CCCCC1CCSS1)NCc1cn(CCCCCOc2ccc3cc(-c4ccc(Cl)c(Cl)c4)c(=O)oc3c2)nn1 (centres undefined) | % | 59.4 |
| O=C(CCCCC1CCSS1)NCc1cn(CCCOc2ccc3ccc(=O)oc3c2)nn1 (centres undefined) | % | 40 |
| O=C(CCCCC1CCSS1)NCc1cn(CCCOc2ccc3cc(-c4ccccc4)c(=O)oc3c2)nn1 (centres undefined) | % | 29.1 |
| COc1ccc(-c2cc3ccc(OCCCCCn4cc(CNC(=O)CCCCC5CCSS5)nn4)cc3oc2=O)cc1 (centres undefined) | % | 45.5 |
| CCOC(=O)c1cc2ccc(OCCCn3cc(CNC(=O)CCCCC4CCSS4)nn3)cc2oc1=O (centres undefined) | % | 36.1 |
| O=C(CCCCC1CCSS1)NCc1cn(CCCCCOc2ccc3ccc(=O)oc3c2)nn1 (centres undefined) | % | 71.3 |
| O=C(CCCCC1CCSS1)NCc1cn(CCCOc2ccc3cc(-c4ccc(Br)cc4)c(=O)oc3c2)nn1 (centres undefined) | % | 63.3 |
